Kindly supply the reported TGI values for the records listed here.
- Tested on: SN12C renal
- assay.comment: NCI tumour cell line growth inhibition, 48 h

Answer with TGI of "Cc1cc(C)c2c(c1)N[S@@](=O)S2" measured for SN12C renal. 36.7 µM

Answer with TGI of "C[C@H](CS)C(=O)N1c2ccccc2C[C@H]1C(=O)O" measured for SN12C renal. > 100 µM

Answer with TGI of "O=C1C=CC(=Nc2cccc3c(N=C4C=CC(=O)O4)cccc23)O1" measured for SN12C renal. 77.9 µM

Answer with TGI of "CN=C(N)N=Nc1c(O)[nH]c2ccccc12" measured for SN12C renal. > 100 µM

Answer with TGI of "CC(=O)Nc1ccc(/C=C2\N=C(c3ccccc3)OC2=O)cc1" measured for SN12C renal. > 100 µM

Answer with TGI of "Clc1ccc(Nc2nc(Nc3ccccc3)nc(Nc3ccc(-c4cc(-c5ccc(Cl)cc5)on4)cc3)n2)cc1" measured for SN12C renal. > 100 µM

* * *

- Test system: SF-539 CNS
- assay.comment: NCI tumour cell line growth inhibition, 48 h
Kindly supply the reported TGI values for the records listed here.

Return TGI (reported value) for this compound: "O=C(Cn1c(=O)oc2ccc(C(=O)c3ccc(F)cc3)cc21)c1ccccc1" > 100 µM

Return TGI (reported value) for this compound: "Cc1nc(N)c(-c2ccccc2)s1" > 100 µM

Return TGI (reported value) for this compound: "N#Cc1ccccc1C#C/C=C\C#Cc1ccccc1N" > 20.2 µM

Return TGI (reported value) for this compound: "COc1cccc(C=C2N=C(c3ccccc3)N(n3c(-c4ccccc4)nc4ccccc4c3=O)C2=O)c1" > 100 µM

Return TGI (reported value) for this compound: "Cc1cc(=O)n(-c2c(C)cccc2Cl)c(/C=C(\O)c2ccncc2)n1" > 100 µM

Return TGI (reported value) for this compound: "CCOc1ccc(/C=C(\Cl)c2ccc(OC)cc2)cc1" > 100 µM

Return TGI (reported value) for this compound: "CCOC(=O)c1cnc2c(ccc3[nH]cccc32)c1=O" > 100 µM

Return TGI (reported value) for this compound: CCOC(=O)C(NO)C(Sc1ccccc1)c1ccc(OC)cc1 (stereo not drawn) > 100 µM

Return TGI (reported value) for this compound: CCN(CC)CCN1C(=O)C2C3C(=O)CC(C)(CC3C)C2C1=O (stereo not drawn) > 100 µM

Return TGI (reported value) for this compound: "C[C@@H]1O[C@]2(O)[C@@H]3CCCN3S(=O)(=O)CCN2C1=O" > 100 µM

Return TGI (reported value) for this compound: "CCO/C(O)=C(/C(=N)N1CCCC1)C(=O)Nc1cccc(Cl)c1" > 100 µM

Return TGI (reported value) for this compound: O=C1C2c3[nH]c4ccccc4c3C3CCCCCC3C2C(=O)N1c1ccccc1 (stereo not drawn) > 52 µM

Return TGI (reported value) for this compound: "CCOCC(=O)N(C)c1cccc2c3c(n(C)c12)CCCCC3" > 100 µM

* * *

Kindly supply the reported TGI values for the records listed here.
- Tested on: NCI-H460 lung
- assay.comment: NCI tumour cell line growth inhibition, 48 h

Return TGI (reported value) for this compound: COC(=O)C1=C(OC(=O)/C=C/c2ccc(Cl)cc2)C(C(=O)OC)[C@]2(O)[C@@H](C(=O)OC)[C@H]1C[C@@H](c1ccccc1)[C@@H]2C(=O)OC (some centres undefined) > 100 µM

Return TGI (reported value) for this compound: CCN(CC)c1ccc(C2Nc3ccc4ccccc4c3C3=C2C(=O)CCC3)cc1 (centres undefined) > 100 µM

Return TGI (reported value) for this compound: C[C@@H]1OC2(O)[C@H]3CCCN3S(=O)(=O)CCN2C1=O (some centres undefined) > 100 µM

Return TGI (reported value) for this compound: CCOC(=O)C(/C(=N\NC(=O)OC)C(=O)Nc1cc(OC)ccc1OC)c1cnc2ccccc2n1 (centres undefined) > 100 µM

Return TGI (reported value) for this compound: "NC(=O)CC1(O)C=C(Br)C(=O)C(Br)=C1" 37 µM

Return TGI (reported value) for this compound: COc1cc2c(cc1O)CN1CCC23C=C[C@@H](O)CC13 (some centres undefined) > 100 µM

Return TGI (reported value) for this compound: C/C(=N\NC(=S)NC(CCC(=O)O)C(=O)O)c1cnccn1 (centres undefined) > 100 µM

Return TGI (reported value) for this compound: "CCCCCCCCCCCCCCCCc1c(C(=O)OC)nc(NN)[nH]c1=O" > 50 µM

Return TGI (reported value) for this compound: COc1ccc(C(=O)O[C@H]2[C@H](O[C@H]3[C@@H](O)COC(O[C@H]4C[C@H]5[C@@H]6CC=C7C[C@@H](O)CC[C@]7(C)[C@H]6CC[C@]5(C)[C@H]4[C@H](C)C(=O)CCC(C)C)[C@@H]3OC(C)=O)OC[C@@H](O)[C@@H]2O)c(C)c1 (some centres undefined) 3.23 µM

Return TGI (reported value) for this compound: "CC(=O)Nc1ccc(/C=C2\N=C(c3ccccc3)OC2=O)cc1" > 100 µM

Return TGI (reported value) for this compound: "COc1ccc(-c2nn(-c3ccc(NC(=O)c4cc(Cl)cc(Cl)c4)cc3)cc2-c2ccncc2)cc1Cl" > 100 µM

Return TGI (reported value) for this compound: COc1cc(COC(=O)N2CC=CC2C(=O)O)c([N+](=O)[O-])cc1OC (centres undefined) > 100 µM

Return TGI (reported value) for this compound: "CCCCN=C(N)c1ccc(N2CCCN(c3ccc(C(N)=NCCCC)cc3)CC2)cc1" 97.6 µM

Return TGI (reported value) for this compound: "CCCCOCOc1ccccc1P1(=O)COc2ccccc2OC1" > 100 µM

Return TGI (reported value) for this compound: "COc1cc(/C=C/c2ccc(Br)cc2)cc(OC)c1OC" 49.4 µM

Return TGI (reported value) for this compound: "NC(=O)C(=CNC(=S)Nc1ccc(S(=O)(=O)Nc2ccccn2)cc1)C(N)=O" > 100 µM

Return TGI (reported value) for this compound: "COc1ccc(S(=O)(=O)N[C@H](C(=O)O)c2ccccc2)cc1" > 100 µM

Return TGI (reported value) for this compound: CC1CCC(=O)C(C(O)CC2CC(=O)N(c3ccccc3)C(=O)C2)C1 (centres undefined) > 100 µM

Return TGI (reported value) for this compound: "O=Cc1c(-c2ccccc2)[nH]c2ccccc2c1=O" > 100 µM

Return TGI (reported value) for this compound: "C[C@@H]1O[C@]2(O)[C@@H]3CCCN3S(=O)(=O)CCN2C1=O" > 100 µM

Return TGI (reported value) for this compound: "Cc1ccc(/C=C/c2c(C(=O)/C=C/c3ccc(Cl)cc3)c(C)nc3ccccc23)cc1" 3.49 µM

Return TGI (reported value) for this compound: COC1OC(CBr)C(OC(=O)c2ccccc2)C(OS(=O)(=O)c2ccc(C)cc2)C1Br (centres undefined) > 100 µM

Return TGI (reported value) for this compound: CC(C)[Si]1(C(C)C)OCC2OC(n3c(C(=O)c4ccccc4)cc(=O)[nH]c3=O)CC2O[Si](C(C)C)(C(C)C)O1 (centres undefined) 15.9 µM

Return TGI (reported value) for this compound: "CCc1[nH]c(=O)c2oc3cc4ccccc4cc3c2c1C(=O)O" > 10 µM

* * *

- Tested on: A549 NSCLC
- assay.comment: NCI tumour cell line growth inhibition, 48 h
Kindly supply the reported TGI values for the records listed here.
Just the number in µM, nothing appended.

Return TGI (reported value) for this molecule: "CN1CCN(c2ccc(NC(=O)c3cncnc3Nc3ccc(OCc4cccc(F)c4)c(Cl)c3)cc2)CC1" 5.05

Return TGI (reported value) for this molecule: "Cc1ccc(NC(=O)Nc2c(Cl)cccc2Cl)cn1" 43

* * *

- Test system: RPMI-8226 leukemia
- assay.comment: NCI tumour cell line growth inhibition, 48 h
metric.name: TGI

Return TGI (reported value) for this molecule: "Cc1cc(S(=O)(=O)Nc2n[nH]c(Nc3ccc4ccccc4c3)n2)c(S)cc1Cl" > 100 µM

Return TGI (reported value) for this molecule: "CN=C(N)N=Nc1c(O)[nH]c2ccccc12" > 100 µM

Return TGI (reported value) for this molecule: CCc1cc2c(c3c1CCCC3)CC1(Cc3ccc(C(=O)OC)cc3C1)C2 (stereo not drawn) > 100 µM

Return TGI (reported value) for this molecule: COC1OC(CBr)C(OC(=O)c2ccccc2)C(OS(=O)(=O)c2ccc(C)cc2)C1Br (stereo not drawn) > 100 µM

Return TGI (reported value) for this molecule: "C[C@@H]1O[C@]2(O)[C@@H]3CCCN3S(=O)(=O)CCN2C1=O" > 100 µM

Return TGI (reported value) for this molecule: "ClCc1ccc(Cn2cnc3c(Cl)ncnc32)cc1" 33.5 µM

Return TGI (reported value) for this molecule: "OCc1ccc(N2CCc3cc(F)ccc3C2)cc1Cl" 22.2 µM

Return TGI (reported value) for this molecule: NC(Cc1c[nH]c2ccc(F)cc12)C(=O)O (stereo not drawn) > 2500 µM

Return TGI (reported value) for this molecule: "CC(=O)Nc1ccc(/C=C2\N=C(c3ccccc3)OC2=O)cc1" > 100 µM

Return TGI (reported value) for this molecule: [N-]=[N+]=Nc1ccc2c(c1)Sc1ccccc1N2CCCCN1CCN(Cc2ccc(C(=O)c3ccc(CSCC(N)C(=O)O)cc3)cc2)CC1 (stereo not drawn) > 100 µM

Return TGI (reported value) for this molecule: "CCOC(=O)c1c(-c2cccc(Cl)c2)c(C(=O)OC)c(C)c2sc(C=O)nc12" 46.4 µM

Return TGI (reported value) for this molecule: "O=Cc1c(-c2ccccc2)[nH]c2ccccc2c1=O" 85.6 µM

Return TGI (reported value) for this molecule: "O=C1c2cccnc2C(=O)c2c1c(C(=O)NCCn1ccnc1)c1ccccn21" 88.4 µM

Return TGI (reported value) for this molecule: COc1cc(C2c3cc4c(cc3[C@@H](Nc3ccc(Oc5ccccc5)cc3)C3COC(=O)[C@H]23)OCO4)cc(OC)c1O (stereo partly drawn) 5.86 µM

Return TGI (reported value) for this molecule: "COc1cccc(C=C2N=C(c3ccccc3)N(n3c(-c4ccccc4)nc4ccccc4c3=O)C2=O)c1" > 100 µM

Return TGI (reported value) for this molecule: CCN(CC)CC(=O)NC1c2ccccc2Oc2c(C)cccc21 (stereo not drawn) > 100 µM

Return TGI (reported value) for this molecule: "Clc1ccc(Nc2nc(Nc3ccccc3)nc(Nc3ccc(-c4cc(-c5ccc(Cl)cc5)on4)cc3)n2)cc1" > 100 µM

Return TGI (reported value) for this molecule: "O=C(Nc1cccc(-n2cc(-c3ccncc3)c(-c3ccc(O)c(Cl)c3)n2)c1)c1cc(C(F)(F)F)cc(C(F)(F)F)c1" 33.1 µM

Return TGI (reported value) for this molecule: "Cc1ccc2nc(-c3ccc(NC(=O)c4ccc(N)cc4)c(S(=O)(=O)O)c3)sc2c1" > 100 µM

Return TGI (reported value) for this molecule: "COc1cc(/C=C/C(=O)/C=C/c2cc3ccc(Cl)cc3n(Cc3ccccc3)c2=O)ccc1O" 10.9 µM

Return TGI (reported value) for this molecule: "CCCCCC[C@@H](C)Nc1nc2ccccc2c2occc12" > 100 µM

Return TGI (reported value) for this molecule: CN(NC1OC(CO)C(O)C(O)C1O)c1ccccc1 (stereo not drawn) > 100 µM

Return TGI (reported value) for this molecule: C/C(=N/NC(=O)C[n+]1ccccc1)C(CN(CC(C)C)CC(C)C)C(=O)Nc1ccc(C)cc1C (stereo not drawn) > 100 µM

Data provenance: PubChem BioAssay (NCI)
